Target: T1, human TL1A extracellular domain with N-terminal HIS and FLAG tag (human, UniProt O95150 72-251)
T1 construct: the whole entry is named
T1 sequence: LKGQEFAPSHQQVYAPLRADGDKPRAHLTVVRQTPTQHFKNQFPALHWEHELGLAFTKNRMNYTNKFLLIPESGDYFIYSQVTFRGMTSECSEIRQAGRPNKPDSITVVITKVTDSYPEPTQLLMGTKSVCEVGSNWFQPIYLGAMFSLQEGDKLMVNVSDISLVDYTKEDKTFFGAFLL
Test: SPR Run 5, Ab from supernatant captured on Protein A, TL1A 5 ug/mL, timepoint 44
parameter: TL1A Binding Level (Early) (RU)
Your answer should be a plain number; it is taken to be in RU.

# binder, parameter, valueReported
records = [
    ("320-403 (antibody, human IgG1, name in Kabat numbering, V domains shown, human IgG1, lambda) VH: QVQLVQSGAEVKKPGASVKVSCKASGWTFTSYDINWVRQAPGQGLEWMGWLNPNSGNTGYAQKFQGRVTMTADRSTSTAYMELSSLRSEDTAVYYCAREVPETAAFEYWGQGTLVTVSS VL: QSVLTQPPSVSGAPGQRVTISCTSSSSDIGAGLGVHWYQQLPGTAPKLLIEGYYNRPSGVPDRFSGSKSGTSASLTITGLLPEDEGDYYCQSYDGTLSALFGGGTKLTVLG", "TL1A Binding Level (Early)", 11),
    ("320-389 (antibody, human IgG1, name in Kabat numbering, V domains shown, human IgG1, lambda) VH: QVQLVQSGAEVKKPGASVKVSCKASSYTFTSYDINWVRQAPGQGLEWMGWLNPNSGNTGYAQKFQGRVTMTADRSTSTAYMELSSLRSEDTAVYYCAREVPETAAFEYWGQGTLVTVSS VL: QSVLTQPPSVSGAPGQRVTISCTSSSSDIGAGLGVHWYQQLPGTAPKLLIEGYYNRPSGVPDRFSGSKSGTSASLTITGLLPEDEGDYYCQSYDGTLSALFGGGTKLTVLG", "TL1A Binding Level (Early)", 12),
]

# context switch: different binder, same TL1A Binding Level (Early)
binder 320-407 (antibody, human IgG1, name in Kabat numbering, V domains shown, human IgG1, lambda) VH: QVQLVQSGAEVKKPGASVKVSCKASGYDFTSYDINWVRQAPGQGLEWMGWLNPNSGNTGYAQKFQGRVTMTADRSTSTAYMELSSLRSEDTAVYYCAREVPETAAFEYWGQGTLVTVSS VL: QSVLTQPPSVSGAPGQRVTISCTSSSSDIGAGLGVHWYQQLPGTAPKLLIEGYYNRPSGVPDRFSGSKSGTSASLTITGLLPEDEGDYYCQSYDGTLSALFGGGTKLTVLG , TL1A Binding Level (Early) observed: 12
